Ref: patent US11957684B2

# assay_info: Example 9 6-week phase 1 study with or without E2/NETA: pharmacokinetics
# Type: in vivo
# particulars: female, human, plasma, 40 mg, plasma Compound 1 AUC0-24, mean (SD), Week 3
measurement_label: AUC(0-t) (ng·h/mL)
Just the number in ng·h/mL, nothing appended.

Ask | Please list AUC(0-t) recorded for the compound CONC(=O)Nc1ccc(-c2sc3c(c2CN(C)C)c(=O)n(-c2ccc(OC)nn2)c(=O)n3Cc2c(F)cccc2F)cc1 [Compound 1]
Reply | 133

====

# assay_info: Example 9 6-week phase 1 study with or without E2/NETA: pharmacokinetics
# Assay type: in vivo
# particulars: female, human, plasma, 40 mg, Compound 1 AUC0-24, geometric mean (CV%), Week 6
measurement_label: AUC(0-t) (ng·h/mL)
Just the number in ng·h/mL, nothing appended.

Ask | Please list AUC(0-t) recorded for the molecule `CONC(=O)Nc1ccc(-c2sc3c(c2CN(C)C)c(=O)n(-c2ccc(OC)nn2)c(=O)n3Cc2c(F)cccc2F)cc1`
Reply | 116

====

# assay_info: Example 9 6-week phase 1 study with or without E2/NETA: pharmacokinetics
# Assay type: in vivo
# particulars: female, human, plasma, 40 mg, plasma Compound 1 t1/2, mean (SD), Week 3
measurement_label: half-life (h)
Just the number in h, nothing appended.

Ask | Please list half-life recorded for the compound CONC(=O)Nc1ccc(-c2sc3c(c2CN(C)C)c(=O)n(-c2ccc(OC)nn2)c(=O)n3Cc2c(F)cccc2F)cc1 [Compound 1]
Reply | 16.7

====

# assay_info: clinical
# particulars: human, in vivo, half-life (T1/2)
# Excerpt: (See J. W. Ng, et al., “Dose-Dependent Suppression of Gonadotropins and Ovarian Hormones by Elagolix in Healthy Premenopausal Females” (poster, 2016); J. Grundy, et al., […] (2008), Vol 83: Supplement 1, S9).
measurement_label: half-life

Ask | Please list half-life recorded for the compound `CONC(=O)Nc1ccc(-c2sc3c(c2CN(C)C)c(=O)n(-c2ccc(OC)nn2)c(=O)n3Cc2c(F)cccc2F)cc1`
Reply | 37 to 42 h

====

# assay_info: Example 9 6-week phase 1 study with or without E2/NETA: pharmacokinetics
# Assay type: in vivo
# particulars: female, human, plasma, 40 mg, plasma Compound 1 Cmax, mean (SD), Week 3
measurement_label: Cmax (ng/mL)
Just the number in ng/mL, nothing appended.

Ask | Please list Cmax recorded for the compound `CONC(=O)Nc1ccc(-c2sc3c(c2CN(C)C)c(=O)n(-c2ccc(OC)nn2)c(=O)n3Cc2c(F)cccc2F)cc1`
Reply | 21.8

====

# assay_info: Example 9 6-week phase 1 study with or without E2/NETA: pharmacokinetics
# Format: in vivo
# particulars: female, human, plasma, 40 mg, plasma Compound 1 tmax, median (min, max), Week 3
measurement_label: Tmax (h)
Just the number in h, nothing appended.

Ask | Please list Tmax recorded for the compound `CONC(=O)Nc1ccc(-c2sc3c(c2CN(C)C)c(=O)n(-c2ccc(OC)nn2)c(=O)n3Cc2c(F)cccc2F)cc1`
Reply | 2.02

====

# assay_info: Example 9 6-week phase 1 study with or without E2/NETA: pharmacokinetics
# Format: in vivo
# particulars: female, human, plasma, 40 mg, plasma Compound 1 t1/2, mean (SD), Week 6
measurement_label: half-life (h)
Just the number in h, nothing appended.

Ask | Please list half-life recorded for the compound `CONC(=O)Nc1ccc(-c2sc3c(c2CN(C)C)c(=O)n(-c2ccc(OC)nn2)c(=O)n3Cc2c(F)cccc2F)cc1`
Reply | 17.1

====

# assay_info: Single dose (1 to 80 mg) and 14-day multiple dose (10 to 40 mg) PK of the Compound 1 formulation
# Assay type: in vivo
# particulars: human, plasma, po; Day 14 of multiple doses of 10 to 40 mg; read-out: mean plasma half-life (T1/2)
measurement_label: half-life

Ask | Please list half-life recorded for the compound `CONC(=O)Nc1ccc(-c2sc3c(c2CN(C)C)c(=O)n(-c2ccc(OC)nn2)c(=O)n3Cc2c(F)cccc2F)cc1`
Reply | 19.2 to 24.6 h

====

# assay_info: Example 9 6-week phase 1 study with or without E2/NETA: pharmacokinetics
# Assay type: in vivo
# particulars: female, human, plasma, 40 mg, plasma Compound 1 Cmax, mean (SD), Week 6
measurement_label: Cmax (ng/mL)
Just the number in ng/mL, nothing appended.

Ask | Please list Cmax recorded for the molecule CONC(=O)Nc1ccc(-c2sc3c(c2CN(C)C)c(=O)n(-c2ccc(OC)nn2)c(=O)n3Cc2c(F)cccc2F)cc1 [Compound 1]
Reply | 19.5

====

# assay_info: Example 9 6-week phase 1 study with or without E2/NETA: pharmacokinetics
# Type: in vivo
# particulars: female, human, plasma, 40 mg, plasma Compound 1 Ctrough, mean (SD), Week 6
measurement_label: concentration at 6 week (ng/mL)
Just the number in ng/mL, nothing appended.

Ask | Please list concentration at 6 week recorded for the compound `CONC(=O)Nc1ccc(-c2sc3c(c2CN(C)C)c(=O)n(-c2ccc(OC)nn2)c(=O)n3Cc2c(F)cccc2F)cc1`
Reply | 2.45

====

# assay_info: Example 9 6-week phase 1 study with or without E2/NETA: pharmacokinetics
# Assay type: in vivo
# particulars: female, human, plasma, 40 mg, plasma Compound 1 Cavg, mean (SD), Week 3
measurement_label: concentration at 3 week (ng/mL)
Just the number in ng/mL, nothing appended.

Ask | Please list concentration at 3 week recorded for the compound `CONC(=O)Nc1ccc(-c2sc3c(c2CN(C)C)c(=O)n(-c2ccc(OC)nn2)c(=O)n3Cc2c(F)cccc2F)cc1`
Reply | 5.53

====

# assay_info: Example 9 6-week phase 1 study with or without E2/NETA: pharmacokinetics
# Format: in vivo
# particulars: female, human, plasma, 40 mg, plasma Compound 1 Cavg, mean (SD), Week 6
# Excerpt: Methods: This was a 6-week phase 1, randomized, open-label, parallel-group, study conducted at 4 sites in the US. […] The first day of dosing occurred on Day 1 to 6 of the menstrual cycle. Hormonal preparations were prohibited for at least 3 months prior to screening. […] Vasomotor symptoms were captured using a daily diary (from screening until follow-up).
measurement_label: concentration at 6 week
Returns: string containing the numeric result and its unit.

Ask | Please list concentration at 6 week recorded for the molecule `CONC(=O)Nc1ccc(-c2sc3c(c2CN(C)C)c(=O)n(-c2ccc(OC)nn2)c(=O)n3Cc2c(F)cccc2F)cc1`
Reply | 5.2 ng/mL

====

# assay_info: Example 9 6-week phase 1 study with or without E2/NETA: pharmacokinetics
# Assay type: in vivo
# particulars: female, human, plasma, 40 mg, plasma Compound 1 tmax, median (min, max), Week 6
measurement_label: Tmax (h)
Just the number in h, nothing appended.

Ask | Please list Tmax recorded for the compound `CONC(=O)Nc1ccc(-c2sc3c(c2CN(C)C)c(=O)n(-c2ccc(OC)nn2)c(=O)n3Cc2c(F)cccc2F)cc1`
Reply | 2

====

# assay_info: Example 9 6-week phase 1 study with or without E2/NETA: pharmacokinetics
# Assay type: in vivo
# particulars: female, human, plasma, 40 mg, plasma Compound 1 AUC0-24, mean (SD), Week 6
measurement_label: AUC(0-t) (ng·h/mL)
Just the number in ng·h/mL, nothing appended.

Ask | Please list AUC(0-t) recorded for the molecule `CONC(=O)Nc1ccc(-c2sc3c(c2CN(C)C)c(=O)n(-c2ccc(OC)nn2)c(=O)n3Cc2c(F)cccc2F)cc1`
Reply | 125

====

# assay_info: Single dose (1 to 80 mg) and 14-day multiple dose (10 to 40 mg) PK of the Compound 1 formulation
# Format: in vivo
# particulars: human, plasma, po; Day 14 of multiple doses of 10 to 40 mg
measurement_label: Tmax

Ask | Please list Tmax recorded for the compound CONC(=O)Nc1ccc(-c2sc3c(c2CN(C)C)c(=O)n(-c2ccc(OC)nn2)c(=O)n3Cc2c(F)cccc2F)cc1 [Compound 1]
Reply | 1 to 1.5 h
